Can you tell me IC50 for the items I'm about to list?
Biological target: Human CCR3 (Homo sapiens)
Construct: The cloned CCR3 cDNA was constructed with pcDNA3 vector and transfected into a IC562 cell line; expressed in transfected cells
Sequence (P51677 1-355): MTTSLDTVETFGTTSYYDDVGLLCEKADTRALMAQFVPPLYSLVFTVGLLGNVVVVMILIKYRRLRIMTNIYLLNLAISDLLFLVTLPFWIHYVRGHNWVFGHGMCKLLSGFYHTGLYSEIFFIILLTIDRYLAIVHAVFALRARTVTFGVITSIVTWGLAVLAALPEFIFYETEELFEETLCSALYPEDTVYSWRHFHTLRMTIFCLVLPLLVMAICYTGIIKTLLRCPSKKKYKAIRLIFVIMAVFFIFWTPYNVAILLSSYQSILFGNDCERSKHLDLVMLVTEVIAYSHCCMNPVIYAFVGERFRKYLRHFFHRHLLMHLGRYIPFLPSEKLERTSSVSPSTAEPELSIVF
Assay: Calcium mobilization assay, eotaxin-stimulated
Type: cell-based
Conditions: human CCR3-transformed K562 cells, 10 nM eotaxin; compounds of about 40 to 90% purity; read-out: Activity grade Ca2+ (IC50 class)
Where a name gives a salt, the structure may show the parent alone.

What IC50 appears in the records for this molecule with Human CCR3 (Homo sapiens)? Cc1cc(C)cc(Oc2ccc([N+](=O)[O-])cc2S(=O)(=O)N2CCN(C3CCCCC3)CC2)c1
< 1000 nM

Quick check: IC50 on Human CCR3 (Homo sapiens), item Cc1cccc(Oc2ccc([N+](=O)[O-])cc2S(=O)(=O)N2CCNCC2)c1 ?
< 1000 nM

Give the reported IC50 for Cl.O=[N+]([O-])c1ccc(Oc2cc(Cl)cc(Cl)c2Cl)c(S(=O)(=O)N2CCNCC2)c1 (system: Human CCR3 (Homo sapiens)).
< 1000 nM

Checklist item: IC50 tested on Human CCR3 (Homo sapiens), entry Cc1cccc(Oc2ccc([N+](=O)[O-])cc2S(=O)(=O)N2CCNCC2)c1C.Cl , value?
< 1000 nM

Lookup: IC50 / Human CCR3 (Homo sapiens) / Cc1cc(C)cc(Oc2ccc(C(=O)N3CCNCC3)cc2S(=O)(=O)N2CCNCC2)c1.Cl.Cl
> 10000 nM

Lab request: please report IC50 under test system Human CCR3 (Homo sapiens) for CCN(CC)C1CCN(S(=O)(=O)c2cc([N+](=O)[O-])ccc2Oc2cc(Cl)cc(Cl)c2)C1 (stereo not shown)
< 1000 nM

For every item below, please supply its IC50.
1. COc1ccc(S(=O)(=O)N2CCNCC2)c(Oc2cc(C)cc(C)c2)c1.Cl
2. COCCCN1CCN(S(=O)(=O)c2cc([N+](=O)[O-])ccc2Sc2cc(Cl)cc(Cl)c2)CC1
3. N#Cc1cc(S(=O)(=O)N2CCNCC2)c(Oc2cc(Cl)cc(Cl)c2)cc1Cl

1: < 1000 nM; 2: < 1000 nM; 3: 1000 to 10000 nM

I would be grateful if you could provide IC50 for each of the following entries.
1. N#Cc1ccccc1Oc1ccc([N+](=O)[O-])cc1S(=O)(=O)N1CCNCC1
2. Cc1cc(C)cc(Sc2ccc([N+](=O)[O-])cc2S(=O)(=O)N2CCNCC2)c1 [Example 2-1, hydrochloride]
3. CC1CCCCN1CCCNS(=O)(=O)c1cc([N+](=O)[O-])ccc1Sc1cc(Cl)cc(Cl)c1 (stereo not shown)
4. Cl.O=[N+]([O-])c1ccc(Oc2cc(Cl)cc(Cl)c2F)c(S(=O)(=O)N2CCNCC2)c1

1000 to 10000 nM
< 1000 nM
< 1000 nM
< 1000 nM

Respectfully, I request IC50 for each entry included below.
1. CCOC(=O)CCN1CCN(S(=O)(=O)c2cc([N+](=O)[O-])ccc2Oc2cc(Cl)cc(Cl)c2)CC1
2. Cc1cc(C)cc(Oc2ccc([N+](=O)[O-])cc2S(=O)(=O)N2CCN(C(=O)OC(C)(C)C)CC2)c1
3. Cc1cc(C)cc(Oc2ccc(NC(=O)CCc3ccccc3)cc2S(=O)(=O)N2CCNCC2)c1

1: < 1000 nM; 2: > 10000 nM; 3: > 10000 nM

Source listed as patent US8242118B2.
